testTarget: T1, human PD-L1 on cells (human, UniProt Q9NZQ7 19-290)
T1 construct: whole, on cells; also called HEK-PD-L1 cells; PD-L1-expressing HEK 293 cells
T1 sequence (Q9NZQ7 19-290): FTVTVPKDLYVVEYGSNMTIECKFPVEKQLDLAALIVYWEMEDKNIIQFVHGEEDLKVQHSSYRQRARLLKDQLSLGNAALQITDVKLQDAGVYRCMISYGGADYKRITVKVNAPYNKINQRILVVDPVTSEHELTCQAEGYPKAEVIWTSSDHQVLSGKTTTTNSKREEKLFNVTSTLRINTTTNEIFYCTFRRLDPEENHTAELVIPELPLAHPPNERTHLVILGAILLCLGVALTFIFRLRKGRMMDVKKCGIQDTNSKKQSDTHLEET
experimentDescription: flow cytometry on CD4 T cells activated with anti-CD3; MFI; column head prints only EC50, unit taken from the axis Antibody Concentration (nM)
Below is a list of entries, each paired with its recorded pEC50 value.
pEC50 is defined as minus the log10 of a concentration measured in mol/L.

Check out these entries, answers already filled in.
chimeric anti-PD-L1 antibody 9A9 (antibody, human IgG1, V domains shown, also called c9A9; chimeric 9A9) VH: QSVEESGGRLVTPGTPLTLTCTVSGIDLSGYWMSWVRQAPGKGLEYIGIVDNDGSAYYASWVNGRFTISKTSTTVDLKITSPTTEDTATYFCARQSGDWTFDLWGPGTLVTVSS VL: DVVMTQTPASVSEPVGGTVTIKCQASQSIGRWLSWYQQKPGQPPKLLIYQASKLASGVPSRFSGSGSGTEFTLTISDLECADAATYYCQNNYDIIAYGNAFGGGTEVVVK = 9.17
chimeric anti-PD-L1 antibody 43G2 (antibody, human IgG1, V domains shown) VH: QSVEESGGRLVTPGTPLTLTCTVSGFSLSSYAMGWVRQAPGEGLEYIGFIDTHGSAYYATWAKGRFTISRTSTTVDLKITSPTTEDTATYFCARNVWTNAGYFNLWGPGTLVTVSS VL: DVVMTQTPSSVSAAVGGTVTIKCQASQNIYTNLAWYQQKPGQPPKLLIYSASTLASGVPSRFKGSGSGTQFTLTISDLECADAATYYCQTYGALIINGGAFGGGTEVVVK = 8.11

## Input Return reported pEC50; argument: chimeric anti-PD-L1 antibody 23D12 (antibody, human IgG1, V domains shown) VH: QSVEESGGRLVTPGTPLTLTCTVSGFSLSNYVMGWVRQAPGKGLEYIGIISNSDNTYYATWATGRFTISKTSTTVDLKMTSLTTEDTATYFCARVDTYYNDFNLWGPGTLVTVSS VL: QVLTQTPSSVEAAVGGTVTIKCQASEDIERYLAWYQQKPGQPPKQLIYDASKLASGVSSRFKGSGSGTEFTLTISGVQCDDAATYYCQHGYIYSSGNPFGGGTEVVVK
## Output 8.89

## Input Now consider chimeric anti-PD-L1 antibody 27H2 (antibody, human IgG1, V domains shown) VH: QSLEESGGDLVKPGASLTLTCTASGFSFSSGDYMCWVRQAPGKGLEGIACIYGGSSGSTYYANWAKGRFTISKTSSTTVTLQMTSLAAADTATYFCARDFRDVGYGYASFRLWGPGILVTVSS VL: DIVMTQTPASVSEPVGGTVTIKCQASQSISSWLSWYQQKPGQPPKLLIYGASNLESGVSSRFKGSGSGTEYTLTISDLECADAATYYCQSNYGSSSSSLNAFGGGTEVVVK and answer again.
## Output 9.12
